Entry source: PubChem BioAssay AID504473

test system: YNL112W; test: TOR pathway GFP reporter clone modulation in yeast – S. cerevisiae, GFP-tagged clone panel, flow cytometry (AID 504473);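 note: median GFP fluorescence of the cells measured by high-throughput flow cytometry; test concentration not given here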; details: S. cerevisiae GFP-tagged strains, 3 h
measurementName: GFP ratio to DMSO
Numbers only.

CNc1nc(N)c([N+](=O)[O-])c(Nc2ccccc2OC)n1 = 0.867
CO[C@H]1C[C@@H]2CC[C@@H](C)[C@@](O)(O2)C(=O)C(=O)N2CCCC[C@H]2C(=O)O[C@H]([C@H](C)C[C@@H]2CC[C@@H](O)[C@H](OC)C2)CC(=O)[C@H](C)/C=C(\C)[C@@H](O)[C@@H](OC)C(=O)[C@H](C)C[C@H](C)/C=C/C=C/C=C/1C = 0.73
CNc1nc(N)c([N+](=O)[O-])c(Nc2ccccc2)n1 = 1.12
CNc1nc(N)c([N+](=O)[O-])c(Nc2cccc(F)c2)n1 = 0.894

Q: Complete the entry with GFP ratio to DMSO for `CNc1nc(N)c([N+](=O)[O-])c(Nc2cccc(Cl)c2)n1`
Ans: 1.07

====

test system: YGL135W; experiment: TOR pathway GFP reporter clone modulation in yeast – S. cerevisiae, GFP-tagged clone panel, flow cytometry (AID 504473);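 note: median GFP fluorescence of the cells measured by high-throughput flow cytometry; test concentration not given here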; settings: S. cerevisiae GFP-tagged strains, 3 h
measurementName: GFP ratio to DMSO
Answers are plain numbers.

Here is how some compounds turned out for GFP ratio to DMSO.
CNc1nc(N)c([N+](=O)[O-])c(Nc2ccccc2OC)n1 = 1.01
CO[C@H]1C[C@@H]2CC[C@@H](C)[C@@](O)(O2)C(=O)C(=O)N2CCCC[C@H]2C(=O)O[C@H]([C@H](C)C[C@@H]2CC[C@@H](O)[C@H](OC)C2)CC(=O)[C@H](C)/C=C(\C)[C@@H](O)[C@@H](OC)C(=O)[C@H](C)C[C@H](C)/C=C/C=C/C=C/1C = 0.682

State the recorded GFP ratio to DMSO for every item in the following list.
1. CNc1nc(N)c([N+](=O)[O-])c(Nc2ccccc2)n1
2. CNc1nc(N)c([N+](=O)[O-])c(Nc2cccc(F)c2)n1
3. CNc1nc(N)c([N+](=O)[O-])c(Nc2cccc(Cl)c2)n1

Ans:
1. 1.08
2. 0.899
3. 1.07

====

test system: YBR139W; test: TOR pathway GFP reporter clone modulation in yeast – S. cerevisiae, GFP-tagged clone panel, flow cytometry (AID 504473);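 note: median GFP fluorescence of the cells measured by high-throughput flow cytometry; test concentration not given here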; details: S. cerevisiae GFP-tagged strains, 3 h
Would you kindly list GFP ratio to DMSO for each of these compounds?
One number for each entry.

Here is how some compounds turned out for GFP ratio to DMSO.
CNc1nc(N)c([N+](=O)[O-])c(Nc2ccccc2OC)n1 = 0.664
CNc1nc(N)c([N+](=O)[O-])c(Nc2cccc(Cl)c2)n1 = 0.935
CNc1nc(N)c([N+](=O)[O-])c(Nc2ccccc2)n1 = 0.915
CNc1nc(N)c([N+](=O)[O-])c(Nc2cccc(F)c2)n1 = 1.12

// next item, GFP ratio to DMSO requested
Q: Complete the entry with GFP ratio to DMSO for `CO[C@H]1C[C@@H]2CC[C@@H](C)[C@@](O)(O2)C(=O)C(=O)N2CCCC[C@H]2C(=O)O[C@H]([C@H](C)C[C@@H]2CC[C@@H](O)[C@H](OC)C2)CC(=O)[C@H](C)/C=C(\C)[C@@H](O)[C@@H](OC)C(=O)[C@H](C)C[C@H](C)/C=C/C=C/C=C/1C`
Ans: 1.61
